Source listed as paper PMC8963254.

# System: A. baumannii AB027
# Format: cell-based, Acinetobacter baumannii
# Assay context: UTBLP alone, plate with rifampicin
Non-standard residues stand in square brackets, D forms with d. Residues, ends and D or L forms follow the SMILES beside them. *: point of attachment. Lys(Me) = CNCCCC[C@H](N)C(=O)O; Octanoyl = CCCCCCCC(=O)*
Readout type: MICUTBLP

1. CCCCCCCC(=O)NCCCC[C@H](NC(=O)CCCCCCC)C(=O)N[C@@H](CCCCNC)C(=O)N[C@@H](CCCCNC)C(=O)N[C@@H](CCCCNC)C(=O)N[C@@H](CCCCNC)C(N)=O [UTBLP 6] (Octanoyl-K(Octanoyl)[Lys(Me)][Lys(Me)][Lys(Me)][Lys(Me)]-NH2): > 128 µg/mL
2. CCCCCCCC(=O)N[C@@H](CCCCNC)C(=O)NCCCN(CCCNC(=O)[C@H](CCCCNC)NC(=O)CCCCCCC)CC(=O)N[C@@H](CCCCNC)C(N)=O [UTBLP 2]: > 128 µg/mL
